method description: Inhibition of gamma-secretase-mediated notch cleavage after 2 hrs by ELISA
pIC50: −log10 of the molar value.
parameter: pIC50

CC[C@@H]1c2cn[nH]c2C(F)(F)[C@H](CC)N1S(=O)(=O)c1ccc(C(F)(F)F)nc1 (relative stereo)	7.30

1 = O=S(=O)(c1ccc(C(F)(F)F)nc1)N1[C@@H](C2CC2)C(F)(F)c2[nH]ncc2[C@H]1C1CC1 (stereo in doubt)
2 = C[C@H]1C(=O)c2[nH]ncc2[C@@H](C2CC2)N1S(=O)(=O)c1ccc(C(F)(F)F)nc1 (relative stereo)
Param pair: 1 , 2 . Output: the one whose pIC50 is numerically greater. Label of pick, please.
2

a = O=S(=O)(c1ccc(C(F)(F)F)nc1)N1[C@H](C2CC2)c2cn[nH]c2C(F)(F)[C@H]1C1CC1 (stereo in doubt)
b = O=C1c2[nH]ncc2C(C2CC2)N(S(=O)(=O)c2ccc(C(F)(F)F)cn2)C12CC2 (racemic)
Param pair: a , b . Output: the one whose pIC50 is numerically greater. Label of pick, please.
a
(a: 8.52, b: 6.30)

P = COC[C@H]1C(=O)c2[nH]ncc2[C@@H](C2CC2)N1S(=O)(=O)c1ccc(C(F)(F)F)cc1 (relative stereo)
Q = O=C1c2[nH]ncc2C(C2CC2)N(S(=O)(=O)c2ccc(C(F)(F)F)cn2)C12CC2 (stereo in doubt; 16h)
R = CC[C@@H]1c2cn[nH]c2C(=O)[C@H](CC)N1S(=O)(=O)c1ccc(C(F)(F)F)nc1 (relative stereo)
S = O=C1c2[nH]ncc2[C@@H](C2CC2)N(S(=O)(=O)c2ccc(C(F)(F)F)nc2)[C@@H]1C1CC1 (relative stereo)
T = O=C1CN(S(=O)(=O)c2ccc(C(F)(F)F)cc2)[C@H](C2CC2)c2cn[nH]c21
Place the items in sequence of falling pIC50. In plain terms: list the labels in the order you were asked to.
R, S, P, T, Q

I = O=S(=O)(c1ccc(C(F)(F)F)nc1)N1C(C2CC2)c2cn[nH]c2C(F)(F)C12CC2 (stereo in doubt; 17b)
II = O=S(=O)(c1ccc(C(F)(F)F)nc1)N1C(C2CC2)c2cn[nH]c2C(F)(F)C12CC2 (racemic)
III = CC(C)(C)C1C(=O)c2[nH]ncc2C(C2CC2)N1S(=O)(=O)c1ccc(C(F)(F)F)nc1 (stereo in doubt; 3u)
IV = O=C1c2[nH]ncc2C(C2CC2)N(S(=O)(=O)c2ccc(C(F)(F)F)nc2)C1C1CCOCC1 (racemic)
Hi! Can you put these in order of pIC50, lowest number first? In plain terms: list the labels in the order you were asked to.
III, IV, II, I
(III: 6.97, IV: 7.72, II: 8.70, I: 9.00)

###

method description: Oxidative metabolic stability in human liver microsomes assessed as compound remaining at 2 uM after 30 mins in presence of 1 mM UDPGA
Type: ADME, Microsome
experimental conditions: liver microsomes, read-out: Stability
parameter: remaining at 0.5 h, 2 µM (%)

Examples with their reported remaining at 0.5 h, 2 µM follow.
CC(C)C1c2cn[nH]c2C(F)(F)CN1S(=O)(=O)c1ccc(Cl)cc1 (racemic)	42
O=C1CN(S(=O)(=O)c2ccc(C(F)(F)F)cc2)C(C(F)(F)F)c2cn[nH]c21 (centres undefined)	6

1 = CC[C@@H]1C(=O)c2[nH]ncc2[C@H](CC)N1S(=O)(=O)c1ccc(Cl)cc1 (stereo in doubt)
2 = O=S(=O)(c1ccc(C(F)(F)F)cc1)N1CC(F)(F)c2[nH]ncc2C1C(F)(F)F (racemic)
// which entry reports the smaller remaining at 0.5 h, 2 µM, 1 or 2 ? Label of pick, please.
2
(2: 35%, 1: 77%)

###

measurement target: Gamma-secretase
method description: Inhibition of gamma-secretase-mediated notch cleavage in human SNC cells by ELISA
parameter: IC50 (nM)

O=C1c2[nH]ncc2C(C2CC2)N(S(=O)(=O)c2ccc(C(F)(F)F)cn2)C12CC2 (racemic)	6210
O=C1c2[nH]ncc2C(C2CC2)N(S(=O)(=O)c2ccc(C(F)(F)F)cc2)C1C1CC1 (racemic)	2790
CC(C)(C)C1C(=O)c2[nH]ncc2C(C2CC2)N1S(=O)(=O)c1ccc(C(F)(F)F)nc1 (stereo in doubt; 3u)	1640
C[C@@H]1N(S(=O)(=O)c2ccc(C(F)(F)F)nc2)[C@H](C2CC2)c2cn[nH]c2C1(F)F (relative stereo)	358
O=C1c2[nH]ncc2C(C2CC2)N(S(=O)(=O)c2ccc(C(F)(F)F)cc2)C12CCCC2 (racemic)	235
O=C1c2[nH]ncc2C(C2CC2)N(S(=O)(=O)c2ccc(C(F)(F)F)nc2)C1c1cc(F)cc(F)c1 (racemic)	4000

A = CC1(C)C(=O)c2[nH]ncc2C(C2CC2)N1S(=O)(=O)c1ccc(C(F)(F)F)cc1 (racemic)
B = O=C1c2[nH]ncc2C(C2CC2)N(S(=O)(=O)c2ccc(Cl)s2)C12CC2 (racemic)
// which entry reports the smaller IC50, A or B ? Label of pick, please.
B
(B: 576 nM, A: 2660 nM)

###

Test system: Liver microsomes
method description: Oxidative metabolic stability in human liver microsomes assessed as compound remaining at 2 uM after 30 mins in presence of 1 mM UDPGA
Assay type: ADME, Microsome
experimental conditions: microsomes, 0.5 h, 2 µM
parameter: Stability (%)

O=C1c2[nH]ncc2C(C2CC2)N(S(=O)(=O)c2ccc(C(F)(F)F)cn2)C12CC2 (stereo in doubt; 16i)	96
O=C1c2[nH]ncc2C(C2CC2)N(S(=O)(=O)c2ccc(C(F)(F)F)nc2)C12CC2 (stereo in doubt; 16e)	88
O=C1c2[nH]ncc2C(C2CC2)N(S(=O)(=O)c2ccc(C(F)(F)F)nc2)C12CC2 (stereo in doubt; 16f)	94
O=S(=O)(c1ccc(C(F)(F)F)nc1)N1C(C2CC2)c2cn[nH]c2C(F)(F)C12CC2 (stereo in doubt; 17c)	100
O=S(=O)(c1ccc(C(F)(F)F)nc1)N1C(C2CC2)c2cn[nH]c2C(F)(F)C12CC2 (stereo in doubt; 17b)	85

###

method description: Oxidative metabolic stability in human liver microsomes assessed as compound remaining at 1 uM after 30 mins in presence of 1 mM NADPH
Type: ADME, Microsome
experimental conditions: liver microsomes, read-out: Stability
parameter: remaining at 0.5 h, 1 µM (%)

O=C1c2[nH]ncc2C(C2CC2)N(S(=O)(=O)c2ccc(C(F)(F)F)nc2)C1c1cc(F)cc(F)c1 (racemic)	9
CC1(C)C(=O)c2[nH]ncc2C(C2CC2)N1S(=O)(=O)c1ccc(C(F)(F)F)cc1 (racemic)	68
CC[C@@H]1C(=O)c2[nH]ncc2[C@H](CC)N1S(=O)(=O)c1ccc(Cl)cc1 (stereo in doubt)	6

a = O=S(=O)(c1ccc(C(F)(F)F)cc1)N1CC(F)(F)c2[nH]ncc2C1C(F)(F)F (racemic)
b = CC(C)[C@H]1C(=O)c2[nH]ncc2[C@@H](C(C)C)N1S(=O)(=O)c1ccc(C(F)(F)F)cc1 (relative stereo)
c = CCC1c2cn[nH]c2C(=O)CN1S(=O)(=O)c1ccc(C(F)(F)F)cc1 (stereo not drawn)
Place the items in sequence of falling remaining at 0.5 h, 1 µM. In plain terms: list the labels in the order you were asked to.
a, c, b
(a: 84%, c: 19%, b: 0%)

a = O=S(=O)(c1ccc(C(F)(F)F)cc1)N1C(C2CC2)c2cn[nH]c2C(F)(F)C1C1CC1 (stereo not drawn)
b = O=S(=O)(c1ccc(C(F)(F)F)nc1)N1[C@H](C2CC2)c2cn[nH]c2C(F)(F)[C@H]1C1CC1 (stereo in doubt)
Param pair: a , b . Output: the one whose remaining at 0.5 h, 1 µM is numerically greater. Label of pick, please.
a
(a: 76%, b: 43%)

a = C[C@@H]1N(S(=O)(=O)c2ccc(C(F)(F)F)cc2)[C@H](C2CC2)c2cn[nH]c2C1(F)F (relative stereo)
b = O=C1CN(S(=O)(=O)c2ccc(C(F)(F)F)nc2)C(C2CC2)c2cn[nH]c21 (racemic)
// which entry reports the smaller remaining at 0.5 h, 1 µM, a or b ? Label of pick, please.
b

a = CC1C(=O)c2[nH]ncc2C(C)N1S(=O)(=O)c1ccc(C(F)(F)F)cc1 (stereo not drawn)
b = O=C1c2[nH]ncc2[C@@H](C2CC2)N(S(=O)(=O)c2ccc(C(F)(F)F)nc2)[C@@H]1C1CC1 (relative stereo)
c = CC[C@@H]1c2cn[nH]c2C(=O)[C@H](CC)N1S(=O)(=O)c1ccc(Cl)cc1 (stereo in doubt)
Place the items in sequence of falling remaining at 0.5 h, 1 µM. In plain terms: list the labels in the order you were asked to.
a, b, c

I = O=C1c2[nH]ncc2C(C2CC2)N(S(=O)(=O)c2ccc(C(F)(F)F)cc2)C12CC2 (racemic)
II = O=S(=O)(c1ccc(C(F)(F)F)nc1)N1[C@@H](C2CC2)c2cn[nH]c2C(F)(F)[C@@H]1C1CC1 (stereo in doubt)
// which entry reports the smaller remaining at 0.5 h, 1 µM, I or II ? Label of pick, please.
II
(II: 53%, I: 85%)

1 = O=C1c2[nH]ncc2[C@@H](C2CC2)N(S(=O)(=O)c2ccc(C(F)(F)F)nc2)[C@H]1C1CC1 (relative stereo)
2 = COC[C@H]1C(=O)c2[nH]ncc2[C@@H](C2CC2)N1S(=O)(=O)c1ccc(C(F)(F)F)cc1 (relative stereo)
3 = CC[C@@H]1c2cn[nH]c2C(F)(F)[C@H](CC)N1S(=O)(=O)c1ccc(C(F)(F)F)nc1 (relative stereo)
4 = CC(C)(C)C1C(=O)c2[nH]ncc2C(C2CC2)N1S(=O)(=O)c1ccc(C(F)(F)F)nc1 (stereo in doubt; 3t)
Place the items in sequence of falling remaining at 0.5 h, 1 µM. In plain terms: list the labels in the order you were asked to.
1, 3, 2, 4
(1: 77%, 3: 22%, 2: 14%, 4: 8%)
